These entries and their values trace back to paper PMC12484987.

Overview of reported Selectivity index SI = IC50(normal cell)/IC50(cancer cell line) across a group of compounds:
System: HepG2 (Hepatocarcinoma)
Settings: MRC-5 vs HepG2
// return a plain number; no unit text

Example entries and their recorded answers appear below.
Compound	Recorded Number
Cc1cc(C=O)cc(C)c1Oc1cc(Oc2c(C)cc(C=O)cc2C)c2cnccc2n1 [Compound 13a]	1.12
COc1cccc2c1C(=O)c1c(O)c3c(c(O)c1C2=O)C[C@@](O)(C(=O)CO)C[C@@H]3O[C@H]1C[C@H](N)[C@H](O)[C@H](C)O1 [doxorubicin, reference compound]	5.17

Q: Quick one: Selectivity index SI = IC50(normal cell)/IC50(cancer cell line) for Cc1cc(C=O)cc(C)c1Oc1cc(Oc2c(C)cc(C=O)cc2C)c2ccncc2n1 [Compound 14a] ?
Result: 1.21
